B1: PhoQ; a variant is named by its letters at X, in order, P23837 (parent)
chain: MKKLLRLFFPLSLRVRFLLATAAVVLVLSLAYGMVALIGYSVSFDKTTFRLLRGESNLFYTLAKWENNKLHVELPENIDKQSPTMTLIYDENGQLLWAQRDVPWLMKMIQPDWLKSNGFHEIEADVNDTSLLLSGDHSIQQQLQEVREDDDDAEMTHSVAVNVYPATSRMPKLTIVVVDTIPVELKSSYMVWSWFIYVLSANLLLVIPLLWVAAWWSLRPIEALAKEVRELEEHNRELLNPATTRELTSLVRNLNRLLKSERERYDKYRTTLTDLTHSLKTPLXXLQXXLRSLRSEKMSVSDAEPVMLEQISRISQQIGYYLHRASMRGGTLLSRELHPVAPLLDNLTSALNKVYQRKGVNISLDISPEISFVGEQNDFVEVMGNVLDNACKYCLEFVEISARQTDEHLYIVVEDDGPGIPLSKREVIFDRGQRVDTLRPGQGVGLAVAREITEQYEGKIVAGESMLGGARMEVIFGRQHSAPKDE

- Variants of: B1
- protocolSummary: enrichment ratio after two sorts for PhoP signalling (ratio (wild type AVST 3.29)); higher = more functional
- runParameters: with PhoP (E. coli)
Whole data set: some 140,000 sequences, median “enrichment ratio after two sorts for PhoP signalling” near 0, cut for the highest 2% near 11. Only a selection was taken, and the highest values are over-represented in it overall.
Form field: enrichment ratio (one value per entry).
Answer using only a numeral; do not append any unit.

Reference set (4 entries):
[[record]]
variantstring = "ACVC"
reportedproperty = "enrichment ratio"
quantitativeresult = 1.02

[[record]]
variantstring = "ACIG"
reportedproperty = "enrichment ratio"
quantitativeresult = 12.3

[[record]]
variantstring = "SKCS"
reportedproperty = "enrichment ratio"
quantitativeresult = 6.51

[[record]]
variantstring = "ACGG"
reportedproperty = "enrichment ratio"
quantitativeresult = 4.87


Next:
// query Which measured enrichment ratio value corresponds to VYPF ?
// result 1.11
